molecular target: RSV fusion glycoprotein (RSV-F) (respiratory syncytial virus); assay: biolayer interferometry (BLI), rIgG1 with M428L/N434S
Measured quantity: pKd
Units for pKd: none; it is -log10 of a concentration expressed in mol/L.

>>> observed("MPH12-v34 (VH-FRGL-S63A/VL-FRGL-D25S) (antibody, V domains shown) VH: QVQLVESGGGLVKPGGSLRLSCAASGFTFSGFYMKWIRQAPGKGLEWVSSISASGSYTNYADAVEGRFTISRDNAKNSLYLQMNSLRAEDTAVYYCARGDSYCGASACHGEFFHKWGQGTLVTVSS VL: QSVLTQPPSVSGAPGQRVTISCTGSSSNIGADFDVHWYQQLPGTAPKLLIYGNINRPSGVPDRFSGSKSGTSASLAITGLQAEDEADYYCQSYDRSLHYVFGTGTKVTVL")
9.30
>>> observed("MPH12-v16 (VH-FRGL-S63A/VL-D25S) (antibody, V domains shown, also called MPH12 VH-FRGL-S63A / MPH12 VL-D25S) VH: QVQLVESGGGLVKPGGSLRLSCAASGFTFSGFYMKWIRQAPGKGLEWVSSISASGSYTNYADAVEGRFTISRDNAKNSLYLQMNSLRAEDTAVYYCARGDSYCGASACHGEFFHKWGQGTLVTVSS VL: QSVLTQPPSVSGAPGQRVTISCTGSSSNIGADFDVHWYQQLPGTAPKLLIYGNINRPSGVPDRFSGSRSGTSAFLAITRLQAEDEADYYCQSYDRSLHYVFGAGTKVTVL")
9.39

Query string: Suppose we examine the binder MPH12-v35 (VH-FRGL-D62E/VL-FRGL-D25S) (antibody, V domains shown) VH: QVQLVESGGGLVKPGGSLRLSCAASGFTFSGFYMKWIRQAPGKGLEWVSSISASGSYTNYAESVEGRFTISRDNAKNSLYLQMNSLRAEDTAVYYCARGDSYCGASACHGEFFHKWGQGTLVTVSS VL: QSVLTQPPSVSGAPGQRVTISCTGSSSNIGADFDVHWYQQLPGTAPKLLIYGNINRPSGVPDRFSGSKSGTSASLAITGLQAEDEADYYCQSYDRSLHYVFGTGTKVTVL ; what pKd value has been reported?
Result string: 9.34
